- TGT: T1, recombinant canine OX40L ECD-TNCc-HIS protein (canine)
- T1 construct: also called Trimeric OX40L probe (HIS tag); trimeric canine OX40L
- T1 chain: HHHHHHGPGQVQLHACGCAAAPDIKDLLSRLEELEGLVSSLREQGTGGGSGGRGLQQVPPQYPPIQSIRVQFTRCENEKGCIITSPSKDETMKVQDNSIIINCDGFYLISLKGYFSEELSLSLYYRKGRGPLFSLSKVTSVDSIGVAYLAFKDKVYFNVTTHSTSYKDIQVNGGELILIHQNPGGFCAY
- TEST_NAME: SPR KD1, bivalent analyte model
# if measured Kd < 8 nM: criterion met  # else: criterion not met

BINDER	CATEGORY_LABEL
PMX027 (antibody, V domains shown, also called PMX27) VH: EVHLVESGGDLVKPGGSLRLSCVASGFTFSTYHMSWVRQAPGKGLQWVAFINAGEISTNYADAVKGRFTISRDNAKNIFYLQMNSLRAEDTAVYYCATGHIWIRPFDYWGQGTLVTVSS VL: SYVLTQLPSMSVTLRQTARITCEGNSIGRKRVNWYQQKLGQVPVLIIYDDDSRPSGIPERFSGANSGNTATLTISGALAEDEAEYYCQVWDSSNNWVFGEGTQLTVL	criterion not met
PMX054 (antibody, V domains shown, also called PMX54) VH: EVHLVESGGDLVKPEGSLRLSCVVSGFTFSSYDMSWVRQAPGKGLQWVAYISSDGRSTGYTDAVKGRFTISRDNAKKTLYLQMNSLRSEDTAVYYCAKETPRWGFDYWGQGTLVTVSS VL: SYVLTQLPSVSVTLRQTARITCGGASIGSKNVYWHQQKLGQAPLLIIYDDSSRPSGIPERFSGANSGNTATLTISGALAEDEADYYCQVWDSSTSVFGGGTHLTVL	criterion met
PMX026 (antibody, V domains shown, also called PMX26) VH: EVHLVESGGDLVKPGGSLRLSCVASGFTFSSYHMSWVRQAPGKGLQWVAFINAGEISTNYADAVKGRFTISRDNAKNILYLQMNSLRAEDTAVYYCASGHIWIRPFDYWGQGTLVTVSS VL: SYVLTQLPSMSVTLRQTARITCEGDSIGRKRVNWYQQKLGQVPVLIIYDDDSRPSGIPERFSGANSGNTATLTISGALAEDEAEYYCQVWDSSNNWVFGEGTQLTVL	criterion not met
PMX064 (antibody, V domains shown, also called PMX64) VH: EVQLVESGGDLVKPGGSLRLSCVASGFTFSSYHMSWVRQAPGKGLQWVAYITSGGITTSYADAVKGRFTISRDNAKNTLYLQMNSLRAEDTAVYYCASDLVLILGGADYWGQGTLVTVSS VL: SYELTQPPSVNVTLSETAHITCGGDSIGRKYVQWIQQNPGQAPVVIIYKDSNRPTGIPERFSGANSGNTATLTISGALAEDEADYYCQVGDSGTKAVFGGGTHLTVL	criterion not met
PMX049 (antibody, V domains shown, also called PMX49) VH: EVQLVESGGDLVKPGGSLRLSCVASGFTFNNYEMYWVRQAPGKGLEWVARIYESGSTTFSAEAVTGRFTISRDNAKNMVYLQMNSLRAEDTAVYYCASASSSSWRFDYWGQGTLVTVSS VL: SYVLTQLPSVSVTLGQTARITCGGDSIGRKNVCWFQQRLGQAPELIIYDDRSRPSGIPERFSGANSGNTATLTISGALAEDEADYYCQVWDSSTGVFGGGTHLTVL	criterion not met
PMX057 (antibody, V domains shown, also called PMX57) VH: EVQLVESGGDLVKPEGSLRLSCVVSGFTFNNYGMSWVRQAPGKGLQWVAYISIDGRSTSYTDAVKGRFTISRDNAKNTLYLHINSLRTEDTAVYYCTKLGRGFTFGYWGQGTLVTVSS VL: SYVLTQLPSKNVTLKQPAHITCGGDNIGSKSVHWYQQKLGQAPALIIYYDSSRPTGIPERFSGANSGNTATLTISGALAEDEADYYCQVWDSSVSVFGGGTHLTVL	criterion met
PMX058 (antibody, V domains shown, also called PMX58) VH: EVQLVESGGDLVKPEGSLRLSCVVSDFTFGSYGMSWVRQAPGKGLQWVAYISSDGRSTSYTDAVKGRFTISRDNAKNTLHLQMNSLRTEDTAVYYCAKLGRGFAFGYWGQGTLVTVSS VL: SYVLTQLPSKNVTLKQPAHITCGGDNIGSKSVHWYQQKLGQAPVLIIYYDSNRPTGIPERFSGANSGNTATLTISGALAEDEADYYCQVWDSSASVFGGGTHLTVL	criterion not met
PMX060 (antibody, V domains shown, also called PMX60) VH: EVQLVESGGDLMKPGGSLRLSCVASGFTFSSFPMSWVRQAPGKGLQWVAYIHSGGSSTSYADAVKGRFTISRDNAKNTLYLQMNSLRAEDTAIYYCARTFPTVAADNWFYYWGQGTLVTVSS VL: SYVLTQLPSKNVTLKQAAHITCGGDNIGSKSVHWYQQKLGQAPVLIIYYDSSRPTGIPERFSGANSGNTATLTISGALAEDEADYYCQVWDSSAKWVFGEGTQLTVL	criterion not met
PMX053 (antibody, V domains shown, also called PMX53) VH: EVQLVESGGDLVKPAGSLRLSCVASGFTFSSYSMSWVRQAPEKGLQLVAGINSAGSSTYYTDAVKGRFTISRDNAKNTVYLQMNSLRAEDTAIYYCAKRWVFDYWGQGTLVTVSS VL: DIVMTQTPLSLSVSPGEPASISCKASQSLPHSLGNTYLYWFRQKPGQSPQRLIYKVSNRDPGVPDRFSGSGSGTDFTLRISRVEADDAGIYYCGQGIQDPFTFGQGTKLEIK	criterion met
PMX038 (antibody, V domains shown, also called PMX38) VH: EVQLVESGGDLVKPGGSLRLSCVASGFTFSSYHMSWVRQAPGKGLQWVAYITSGGRTTSYADAVKGRFTISRDNAKNTLYLQMKSLRAEDTAVYYCARDLVLVLGGAEYWGQGTLVTVSS VL: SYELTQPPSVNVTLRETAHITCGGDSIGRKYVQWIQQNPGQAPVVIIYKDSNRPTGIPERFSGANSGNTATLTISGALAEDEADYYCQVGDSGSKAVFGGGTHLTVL	criterion not met
